- target_desc: Cyclin-dependent kinase 2/cyclin E (Homo sapiens, UniProt P24941)
- assay_explanation: Inhibitory concentration against human Cyclin E-cyclin-dependent kinase 2 was observed
value_kind: IC50 (nM)
One number for each entry, in nM.

# count of solved cases: 10
>  <smiles_input>
N=C(N)NS(=O)(=O)c1ccc(Nc2cn3cc(C(=O)c4c(Cl)cccc4Cl)ccc3n2)cc1

>  <measurement_units>
nM

>  <IC50>
250

$$$$
>  <smiles_input>
NC(=O)c1cccc(Nc2cn3cc(C(=O)c4c(Cl)cccc4Cl)ccc3n2)c1

>  <measurement_units>
nM

>  <IC50>
2720

$$$$
>  <smiles_input>
CSc1cccc(Nc2cn3cc(C(=O)c4c(Cl)cccc4Cl)ccc3n2)c1

>  <measurement_units>
nM

>  <IC50>
17700

$$$$
>  <smiles_input>
NC(=O)c1ccc(Nc2cn3cc(C(=O)c4c(Cl)cccc4Cl)ccc3n2)cc1

>  <measurement_units>
nM

>  <IC50>
1630

$$$$
>  <smiles_input>
CN(C)S(=O)(=O)c1ccc(Nc2cn3cc(C(=O)c4c(Cl)cccc4Cl)ccc3n2)cc1

>  <measurement_units>
nM

>  <IC50>
1540

$$$$
>  <smiles_input>
CS(=O)(=O)c1ccc(Nc2cn3cc(C(=O)c4c(Cl)cccc4Cl)ccc3n2)cc1

>  <measurement_units>
nM

>  <IC50>
1210

$$$$
>  <smiles_input>
CSc1ccc(Nc2cn3cc(C(=O)c4c(Cl)cccc4Cl)ccc3n2)cc1

>  <measurement_units>
nM

>  <IC50>
13800

$$$$
>  <smiles_input>
CS(=O)(=O)c1cccc(Nc2cn3cc(C(=O)c4c(Cl)cccc4Cl)ccc3n2)c1

>  <measurement_units>
nM

>  <IC50>
2860

$$$$
>  <smiles_input>
CN(C)S(=O)(=O)c1cccc(Nc2cn3cc(C(=O)c4c(Cl)cccc4Cl)ccc3n2)c1

>  <measurement_units>
nM

>  <IC50>
12100

$$$$
>  <smiles_input>
O=C(NS(=O)(=O)c1ccc(Nc2cn3cc(C(=O)c4c(Cl)cccc4Cl)ccc3n2)cc1)c1ccccc1

>  <measurement_units>
nM

>  <IC50>
670

$$$$

Now turn to the next molecule.
# input Can you share its IC50? I mean this molecule: `O=C(O)c1ccc(Nc2cn3cc(C(=O)c4c(Cl)cccc4Cl)ccc3n2)cc1`
# output 740
